procedure.details: viability profiling in RPMI8226 myeloma cells – cell-based, resazurin fluorescence, basal, 24 h, PK04 Diversity Set, profiling panel (AID 1180);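 also: RPMI8826 multiple myeloma cell line at 5000 cells per well; test concentration not given here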
conditions: higher = more signal

[
  {
    "compound": "COc1cc(CO)cc(I)c1O[C@H]1C=C(C(=O)NCCO)C[C@@H]2O[C@H]12",
    "z-score": -0.408
  },
  {
    "compound": "O=C(NCCN1CCOCC1)[C@@H]1c2ccccc2C(=O)N(Cc2ccc(OC(F)(F)F)cc2)[C@H]1c1ccc(CO)cc1",
    "z-score": 0.546
  },
  {
    "compound": "O=C1C2C=CC(C(O)C3CCCCC3)N(n3cnnc3)C2C(=O)N1Cc1ccccc1 (configuration not stated)",
    "z-score": -0.513
  },
  {
    "compound": "CCC(CC)C(O)C1C=CC2C(=O)N(c3ccccc3)C(=O)C2N1Nc1ccccc1F (configuration not stated)",
    "z-score": 0.181
  },
  {
    "compound": "NC(=O)N1C(=O)C2C(C1=O)C1C=C(CCCO)C2C(c2ccc(CN3CCCC3)cc2)N1Cc1sc2ccccc2c1Cl (configuration not stated)",
    "z-score": -1.04
  },
  {
    "compound": "C=C(C)[C@@H]1CC=C(C(O)C2C=CC3C(=O)N(c4ccccc4)C(=O)C3N2Nc2ccc([N+](=O)[O-])cc2)CC1 (some centres not stated)",
    "z-score": -0.204
  },
  {
    "compound": "CN(C)CCCNC(=O)[C@@]1(C)c2ccccc2C(=O)N(Cc2ccc(OC(F)(F)F)cc2)[C@H]1c1ccc(CO)cc1",
    "z-score": 0.415
  },
  {
    "compound": "N#Cc1ccc(-c2cccc(=O)o2)cc1",
    "z-score": -0.389
  },
  {
    "compound": "CCCC=C(CCC)[C@@H](NC(=O)c1ccc(C(F)(F)F)cc1)c1ccc(C(F)(F)F)cc1",
    "z-score": -1.9
  },
  {
    "compound": "COC(=O)C(CC#Cc1ccc2c(c1)[C@]1(C(=O)N2)[C@H](C(=O)N2CCc3cc(OC)c(OC)cc3C2)[C@H]2C(=O)O[C@H](c3ccccc3)[C@H](c3ccccc3)N2[C@@H]1c1ccccc1OCCO)C(=O)OC",
    "z-score": -0.705
  },
  {
    "compound": "CC(C)(C)N1CC=CC23O[C@@H]4C=CCCOC(=O)C4[C@H]2C(=O)N(CCCCCCO)[C@@H]3C1=O (some centres not stated)",
    "z-score": 0.382
  },
  {
    "compound": "[N-]=[N+]=Nc1ccccc1[C@@H]1OC(c2ccc(OCCCO)cc2)=N[C@]1(CCS(=O)(=O)c1ccccc1)C(=O)NCC(O)CO (some centres not stated)",
    "z-score": -0.315
  }
]
